Target: human sodium glucose co-transporter 2 (Homo sapiens (Human), UniProt P31639)
Sequence (P31639 whole entry): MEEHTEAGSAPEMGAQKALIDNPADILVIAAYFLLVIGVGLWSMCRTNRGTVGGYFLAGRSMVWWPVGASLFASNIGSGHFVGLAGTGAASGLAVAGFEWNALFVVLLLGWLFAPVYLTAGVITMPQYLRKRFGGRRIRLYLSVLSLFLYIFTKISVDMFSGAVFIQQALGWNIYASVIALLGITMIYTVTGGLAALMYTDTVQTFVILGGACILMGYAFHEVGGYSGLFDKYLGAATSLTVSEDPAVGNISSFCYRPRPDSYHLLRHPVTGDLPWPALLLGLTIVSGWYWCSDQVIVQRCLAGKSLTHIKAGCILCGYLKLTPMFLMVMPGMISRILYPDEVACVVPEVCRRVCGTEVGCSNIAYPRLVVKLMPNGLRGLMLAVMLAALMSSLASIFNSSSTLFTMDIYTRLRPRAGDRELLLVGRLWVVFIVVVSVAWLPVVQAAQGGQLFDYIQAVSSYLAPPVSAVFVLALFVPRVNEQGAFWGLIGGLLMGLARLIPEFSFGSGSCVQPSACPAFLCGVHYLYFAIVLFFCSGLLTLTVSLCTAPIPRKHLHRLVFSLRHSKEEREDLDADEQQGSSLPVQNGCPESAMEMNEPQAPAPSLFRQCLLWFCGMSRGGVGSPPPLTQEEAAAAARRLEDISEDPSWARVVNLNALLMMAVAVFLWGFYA
Assay: SGLT-2 assay: 14C-AMG uptake in CHO-hSGLT2 or HEK-hSGLT2 cells
Type: cell-based
Details: n = 1-4, cells stably transfected with hSGLT2, read-out: SGLT2 IC50 nM (n = 1-4)
Below, each entry is listed alongside its reported IC50.
I'd appreciate it if you included the unit after the number.

The following compounds have reported results that may help.
[Q] Query the reported IC50 for human sodium glucose co-transporter 2 (Homo sapiens (Human), UniProt P31639); item: `O=C1COc2ccc(Cc3cc([C@@H]4O[C@H](CO)[C@@H](O)[C@H](O)[C@H]4O)ccc3Cl)cc2N1`
[A] 16.5 nM

[Q] Subsequent entry: `OC[C@H]1O[C@@H](c2ccc(Cl)c(Cc3ccc4c(c3)OCCN4)c2)[C@H](O)[C@@H](O)[C@@H]1O`
[A] 0.33 nM

[Q] Now the same for `OC[C@H]1O[C@@H](c2ccc(Cl)c(Cc3ccc4c(c3)OCCN4C3CC3)c2)[C@H](O)[C@@H](O)[C@@H]1O`
[A] 16 nM

Continuing:
[Q] Quick check: IC50 on human sodium glucose co-transporter 2 (Homo sapiens (Human), UniProt P31639), item `COc1ccc([C@@H]2O[C@H](CO)[C@@H](O)[C@H](O)[C@H]2O)cc1Cc1ccc2c(c1)CCC1(CCC1)O2` ?
[A] 16.2 nM

[Q] Next compound up: `OC[C@H]1O[C@@H](c2ccc(Cl)c(Cc3ccc4c(c3)N(Cc3ccccc3)CCO4)c2)[C@H](O)[C@@H](O)[C@@H]1O`
[A] 65 nM

[Q] Ok, now `OC[C@H]1O[C@@H](c2ccc(Cl)c(Cc3ccc4c(c3)NCCC4)c2)[C@H](O)[C@@H](O)[C@@H]1O`
[A] 0.15 nM

[Q] Same again, this time with `OC[C@H]1O[C@@H](c2ccc(Cl)c(Cc3ccc4c(c3)CCCN4)c2)[C@H](O)[C@@H](O)[C@@H]1O`
[A] 0.2 nM

====

Biological target: UniProt P31639
Assay: SGLT-2 assay: 14C-AMG uptake in CHO-hSGLT2 or HEK-hSGLT2 cells
Assay type: cell-based
Settings: n = 1-4, cells stably transfected with hSGLT2, read-out: SGLT2 IC50 nM (n = 1-4)
Reported IC50 values for a set of compounds

Completed entries (count: 3):
[Q] Find IC50 (UniProt P31639) for the entry `COc1ccc([C@@H]2O[C@H](CO)[C@@H](O)[C@H](O)[C@H]2O)cc1Cc1ccc2c(c1)NCCO2`
[A] 1.2 nM

[Q] Please give the result for `OC[C@H]1O[C@@H](c2ccc(Cl)c(Cc3ccc4c(c3)N(CC3CC3)CCO4)c2)[C@H](O)[C@@H](O)[C@@H]1O` too.
[A] 18 nM

[Q] Query `CC(C)c1ccc([C@@H]2O[C@H](CO)[C@@H](O)[C@H](O)[C@H]2O)cc1Cc1ccc2c(c1)NCCO2` next
[A] 1.2 nM

From here, focus on the item given below.
[Q] Missing value: IC50, UniProt P31639, entry `OC[C@H]1O[C@@H](c2ccc(Cl)c(Cc3ccc4c(c3)CCN4)c2)[C@H](O)[C@@H](O)[C@@H]1O` . Fill in?
[A] 0.8 nM

====

Target: human sodium glucose co-transporter 2 (Homo sapiens (Human), UniProt P31639)
Experiment: SGLT-2 assay: 14C-AMG uptake in CHO-hSGLT2 or HEK-hSGLT2 cells
Assay type: cell-based
Conditions: n = 1-4, cells stably transfected with hSGLT2, read-out: SGLT2 IC50 nM (n = 1-4)
Property: log10 of IC50; scope: individual molecules
Would you kindly interpret these values as log10 of IC50 expressed in nM?

# annotated cases, reported log10 of IC50 shown
[Q] I have this molecule here, OC[C@H]1O[C@@H](c2ccc(Cl)c(Cc3ccc4c(c3)CCO4)c2)[C@H](O)[C@@H](O)[C@@H]1O [Example 22] , and I need its recorded log10 of IC50.
[A] -0.40

[Q] Moving on to the next molecule: OC[C@H]1O[C@@H](c2ccc(Cl)c(Cc3ccc4c(c3)C(O)CCO4)c2)[C@H](O)[C@@H](O)[C@@H]1O (some centres unmarked) [Example 36]
[A] 1.45

[Q] And for OC[C@H]1O[C@@H](c2ccc(Cl)c(Cc3ccc4c(c3)CCC3(CCCC3)O4)c2)[C@H](O)[C@@H](O)[C@@H]1O [Example 38] ?
[A] 1.16

[Q] Next molecule: O=C1COc2cc(Cc3cc([C@@H]4O[C@H](CO)[C@@H](O)[C@H](O)[C@H]4O)ccc3Cl)ccc2N1 [Example 42]
[A] -0.46

[Q] Same lookup for OC[C@H]1O[C@@H](c2ccc(OC(F)(F)F)c(Cc3ccc4c(c3)CCCO4)c2)[C@H](O)[C@@H](O)[C@@H]1O [Example 33] , please.
[A] 1.04

[Q] Now the molecule COc1ccc(CN2CCCc3cc(Cc4cc([C@@H]5O[C@H](CO)[C@@H](O)[C@H](O)[C@H]5O)ccc4Cl)ccc32)cc1 [Example 14]
[A] 0.74

Turning to the following molecule.
[Q] Please report the recorded log10 of IC50 for OC[C@H]1O[C@@H](c2ccc(Cl)c(Cc3ccc4c(c3)C3(CCO4)CC3)c2)[C@H](O)[C@@H](O)[C@@H]1O [Example 29] .
[A] 1.93

====

Biological target: human SGLT1 (Homo sapiens (Human))
Sequence (P13866 whole entry): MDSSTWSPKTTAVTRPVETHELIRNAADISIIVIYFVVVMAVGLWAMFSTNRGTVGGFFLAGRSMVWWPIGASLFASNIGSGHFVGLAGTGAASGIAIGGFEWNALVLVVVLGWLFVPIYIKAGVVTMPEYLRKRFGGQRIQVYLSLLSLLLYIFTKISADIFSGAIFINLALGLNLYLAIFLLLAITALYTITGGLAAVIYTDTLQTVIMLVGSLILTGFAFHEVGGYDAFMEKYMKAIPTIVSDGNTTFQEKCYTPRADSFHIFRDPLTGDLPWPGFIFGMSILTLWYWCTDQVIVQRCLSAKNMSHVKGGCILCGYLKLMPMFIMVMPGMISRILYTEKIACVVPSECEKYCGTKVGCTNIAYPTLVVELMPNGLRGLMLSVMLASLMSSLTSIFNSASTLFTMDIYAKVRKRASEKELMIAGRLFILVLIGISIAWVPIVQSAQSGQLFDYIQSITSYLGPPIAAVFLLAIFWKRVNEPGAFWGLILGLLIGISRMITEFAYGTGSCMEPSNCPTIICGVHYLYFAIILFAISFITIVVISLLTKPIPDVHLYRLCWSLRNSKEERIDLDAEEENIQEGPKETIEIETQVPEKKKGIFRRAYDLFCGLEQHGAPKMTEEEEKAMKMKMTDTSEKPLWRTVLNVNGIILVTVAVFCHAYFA
Test: SGLT1 assay: analogous test with hSGLT1 cDNA expressed in CHO-K1 or HEK293 cells
Format: cell-based
Settings: n = 1-4; 14C-AMG uptake, cells expressing hSGLT1
Category | rule: reported IC50 within range, see bottom range: < 200 nM; center range: ≥ 200 nM and < 800 nM; top range: ≥ 800 nM

[Q] Just checking, what class would you give `OC[C@H]1O[C@@H](c2ccc(C3CC3)c(Cc3ccc4c(c3)NCCO4)c2)[C@H](O)[C@@H](O)[C@@H]1O` here?
[A] bottom range

[Q] Cool, now `O=C1COc2ccc(Cc3cc([C@@H]4O[C@H](CO)[C@@H](O)[C@H](O)[C@H]4O)ccc3Cl)cc2N1`
[A] top range

[Q] And then `COc1ccc([C@@H]2O[C@H](CO)[C@@H](O)[C@H](O)[C@H]2O)cc1Cc1ccc2c(c1)CCC1(CCC1)O2` , what is it?
[A] top range

[Q] How about `O=C1COc2cc(Cc3cc([C@@H]4O[C@H](CO)[C@@H](O)[C@H](O)[C@H]4O)ccc3Cl)ccc2N1` ?
[A] bottom range

---
[Q] Which category fits this record: `OC[C@H]1O[C@@H](c2ccc(Cl)c(Cc3ccc4c(c3)NCCO4)c2)[C@H](O)[C@@H](O)[C@@H]1O`
[A] center range

[Q] Proceed to `CC(C)c1ccc([C@@H]2O[C@H](CO)[C@@H](O)[C@H](O)[C@H]2O)cc1Cc1ccc2c(c1)NCCO2`
[A] bottom range

[Q] Same again, this time with `OC[C@H]1O[C@@H](c2ccc(Cl)c(Cc3ccc4c(c3)CCCN4)c2)[C@H](O)[C@@H](O)[C@@H]1O`
[A] center range

[Q] Also need `CC1(C)CNc2cc(Cc3cc([C@@H]4O[C@H](CO)[C@@H](O)[C@H](O)[C@H]4O)ccc3Cl)ccc2O1` , thanks.
[A] top range

[Q] What about `OC[C@H]1O[C@@H](c2ccc(Cl)c(Cc3ccc4c(c3)CCN4)c2)[C@H](O)[C@@H](O)[C@@H]1O` ?
[A] center range

[Q] For `COc1ccc([C@@H]2O[C@H](CO)[C@@H](O)[C@H](O)[C@H]2O)cc1Cc1ccc2c(c1)OCCO2` then?
[A] bottom range

[Q] Same question for `CC(C)c1ccc([C@@H]2O[C@H](CO)[C@@H](O)[C@H](O)[C@H]2O)cc1Cc1ccc2c(c1)NCCC2` please.
[A] bottom range

[Q] Now the molecule `CN1CCOc2cc(Cc3cc([C@@H]4O[C@H](CO)[C@@H](O)[C@H](O)[C@H]4O)ccc3Cl)ccc21`
[A] center range

[Q] Then what about the molecule `OC[C@H]1O[C@@H](c2ccc(F)c(Cc3ccc4c(c3)NCCO4)c2)[C@H](O)[C@@H](O)[C@@H]1O` ?
[A] top range

[Q] Repeat with `OC[C@H]1O[C@@H](c2ccc(Cl)c(Cc3ccc4c(c3)C3(CCO4)CC3)c2)[C@H](O)[C@@H](O)[C@@H]1O`
[A] top range

[Q] Next: `CCc1ccc([C@@H]2O[C@H](CO)[C@@H](O)[C@H](O)[C@H]2O)cc1Cc1ccc2c(c1)NCCO2`
[A] bottom range

[Q] Also check `COc1ccc([C@@H]2O[C@H](CO)[C@@H](O)[C@H](O)[C@H]2O)cc1Cc1ccc2c(c1)NCCO2`
[A] center range

[Q] Thanks! And `COc1ccc([C@@H]2O[C@H](CO)[C@@H](O)[C@H](O)[C@H]2O)cc1Cc1ccc2c(c1)OCC(=O)N2` ?
[A] bottom range

[Q] Next up: `CCN1CCOc2cc(Cc3cc([C@@H]4O[C@H](CO)[C@@H](O)[C@H](O)[C@H]4O)ccc3Cl)ccc21`
[A] top range

[Q] # repeat for `OC[C@H]1O[C@@H](c2ccc(Cl)c(Cc3ccc4c(c3)CCCO4)c2)[C@H](O)[C@@H](O)[C@@H]1O`
[A] top range
